Task for the reader: assign each of the following compounds its reported fold induction at 15 µM.
target: SFRP-1 (Homo sapiens); assay: Cell-based assay for in vitro measurement of SFRP-1/SARP2 antagonist activity (U2OS cells co-transfected with 16x TCF-tk-Luciferase reporter, Wnt and hSFRP-1); settings: U2OS, read-out: Fold Induction without SFRP-1, Conc 15 μM; without SFRP-1, single dose
Sequence (Q8N474 32-314): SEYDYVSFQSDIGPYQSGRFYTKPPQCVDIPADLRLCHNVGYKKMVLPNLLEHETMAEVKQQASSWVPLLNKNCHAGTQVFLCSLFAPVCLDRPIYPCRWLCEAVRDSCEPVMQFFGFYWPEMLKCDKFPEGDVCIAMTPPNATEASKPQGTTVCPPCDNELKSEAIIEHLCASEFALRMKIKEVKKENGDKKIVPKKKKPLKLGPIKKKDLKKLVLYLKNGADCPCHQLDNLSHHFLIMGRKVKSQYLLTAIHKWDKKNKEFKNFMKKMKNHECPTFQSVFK
When you answer, write just the number.

Exam item: Short answer please: fold induction at 15 µM, SFRP-1 (Homo sapiens), entry Cc1ccc(S(=O)(=O)c2ccc(F)cc2)cc1S(=O)(=O)NCCn1ccnc1 [Example 307]
Marked response: 0.9

Exam item: # repeat for Cc1ccc(S(=O)(=O)c2ccccc2)cc1S(=O)(=O)NCCn1ccnc1 [Example 314]
Marked response: 1.3

Exam item: # repeat for Cc1cc(S(=O)(=O)c2ccccc2)cc(S(=O)(=O)NC2CCOCC2)c1C [Example 350]
Marked response: 1.3

Exam item: # repeat for CC(C)c1ccc(S(=O)(=O)c2ccc(F)cc2)cc1S(=O)(=O)NC[C@@H](C)c1ccccc1 [Example 444]
Marked response: 1.1

* * *

biological target: SFRP-1 (Homo sapiens)
Measured Parameter: IC50 (nM)
Write it as a number; the unit nM goes unstated.

Exam item: Query: IC50; subject: `CC(C)c1cc(C(C)C)c(S(=O)(=O)c2ccc(F)cc2)cc1S(=O)(=O)NCC1CCOCC1`
Marked response: 3000

Exam item: # repeat for `CCCc1ccc(S(=O)(=O)c2ccc(F)cc2)cc1S(=O)(=O)NCCCn1ccnc1`
Marked response: 500

Exam item: # repeat for `COc1ccc(C(=O)N(C)CCNS(=O)(=O)c2cc(S(=O)(=O)c3ccccc3)ccc2C(F)(F)F)cc1`
Marked response: 200

Exam item: # repeat for `CC(C)c1ccc(S(=O)(=O)c2ccc(NCCC#N)cc2)cc1S(=O)(=O)NCCC1CCOCC1`
Marked response: 700

* * *

molecular target: SFRP-1 (Homo sapiens); test: Cell-based assay for in vitro measurement of SFRP-1/SARP2 antagonist activity (U2OS cells co-transfected with 16x TCF-tk-Luciferase reporter, Wnt and hSFRP-1); settings: U2OS, read-out: Fold Induction with SFRP-1, Conc 15 μM; single dose; luciferase reporter, fold induction over SFRP-1 control; cells with SFRP-1;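 note: U2OS cells co-transfected with a TCF-tk luciferase reporter, a Wnt vector, hSFRP-1 or empty vector and CMV-βgal, luciferase luminescence read in cell lysates alongside βgal activity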
Measured Parameter: fold induction at 15 µM
When you answer, write just the number.

Exam item: Short answer please: fold induction at 15 µM, SFRP-1 (Homo sapiens), entry Cc1c(S(=O)(=O)NCCCn2ccnc2)cccc1S(=O)(=O)c1ccccc1 [Example 493]
Marked response: 1

Exam item: # repeat for CC(C)c1cc(C(C)C)c(S(=O)(=O)c2ccccc2)cc1S(=O)(=O)NCCc1cccnc1 [Example 616]
Marked response: 2.7

Exam item: # repeat for CC(C)c1ccc(S(=O)(=O)c2ccc(N3CCN(C(=O)OC(C)(C)C)CC3)cc2)cc1S(=O)(=O)NC1CCOCC1 [Example 625]
Marked response: 2.2

Exam item: # repeat for COCC(=O)N1CCC(NS(=O)(=O)c2cc(S(=O)(=O)c3ccc(F)cc3)ccc2C)CC1 [Example 589]
Marked response: 2.6

Exam item: # repeat for CCCc1ccc(S(=O)(=O)c2ccc(F)cc2)cc1S(=O)(=O)NC1CCN(C(=O)OC(C)(C)C)CC1 [Example 567]
Marked response: 2.2

Exam item: # repeat for O=S(=O)(NC1CCOCC1)c1cc(S(=O)(=O)c2ccc(F)cc2)ccc1Cl [Example 622]
Marked response: 2.7

Exam item: # repeat for CC(C)c1ccc(S(=O)(=O)c2ccc(F)cc2)cc1S(=O)(=O)NC1CCCCC1 [Example 524]
Marked response: 1.4

Exam item: # repeat for Cc1cccc(Cl)c1S(=O)(=O)c1ccc(C(C)C)c(S(=O)(=O)NCCc2ccccn2)c1 [Example 578]
Marked response: 2.8
